# assayProcedure: physchem
# Format: physicochemical
Threshold rule: logP greater than or equal to 2 is Met; below that, Not met.

molecule | classLabel
COc1cccc(COc2ccc3nc4ccc(=O)cc-4oc3c2)c1 | Met

Answer whether logP of O=c1ccc2nc3ccc(OCc4ccccc4)cc3oc-2c1 is greater than or equal to 2.
Met

Answer whether logP of O=c1ccc2nc3ccc(O)cc3oc-2c1 is greater than or equal to 2.
Not met

Answer whether logP of CC(=O)OCCOc1ccc2nc3ccc(=O)cc-3oc2c1 is greater than or equal to 2.
Met

Answer whether logP of O=c1ccc2nc3ccc(OCCBr)cc3oc-2c1 is greater than or equal to 2.
Met

Answer whether logP of COc1ccc(COc2ccc3nc4ccc(=O)cc-4oc3c2)cc1 is greater than or equal to 2.
Not met

Answer whether logP of CC(=O)Oc1ccc2nc3ccc(=O)cc-3oc2c1 [Resorufin acetate] is greater than or equal to 2.
Met

Answer whether logP of CCOc1ccc2nc3ccc(=O)cc-3oc2c1 is greater than or equal to 2.
Met

Answer whether logP of CCCCCOc1ccc2nc3ccc(=O)cc-3oc2c1 is greater than or equal to 2.
Met

Answer whether logP of O=c1ccc2nc3ccc(OCc4ccc(OCCF)cc4)cc3oc-2c1 is greater than or equal to 2.
Met

====

# systemUnderTest: CAA (Homo sapiens, UniProt P05067)
# assayProcedure: In situ binding assay on CAA in fixed brain sections of Tg2576 mice
# Parameters: species or system mouse (Tg2576); unit not given here
Threshold rule: Binding affinity in situ, Bmax on CAA greater than or equal to 500 is MET; below that, NOT MET.

// known answers, use as guide
chemSmiles | systemUnderTest | classLabel
O=c1ccc2nc3ccc(OCCF)cc3oc-2c1 | CAA (Homo sapiens, UniProt P05067) | MET
CCOc1ccc2nc3ccc(=O)cc-3oc2c1 | CAA (Homo sapiens, UniProt P05067) | NOT MET
COc1cccc(COc2ccc3nc4ccc(=O)cc-4oc3c2)c1 | CAA (Homo sapiens, UniProt P05067) | MET

Answer whether Binding affinity in situ, Bmax on CAA of O=c1ccc2nc3ccc(OCc4ccc(OCCF)cc4)cc3oc-2c1 is greater than or equal to 500.
MET

Answer whether Binding affinity in situ, Bmax on CAA of O=c1ccc2nc3ccc(OCc4cn(CCF)nn4)cc3oc-2c1 is greater than or equal to 500.
MET

Answer whether Binding affinity in situ, Bmax on CAA of O=c1ccc2nc3ccc(OCc4ccccc4)cc3oc-2c1 is greater than or equal to 500.
NOT MET

Answer whether Binding affinity in situ, Bmax on CAA of COc1ccc(COc2ccc3nc4ccc(=O)cc-4oc3c2)cc1 is greater than or equal to 500.
NOT MET

====

# systemUnderTest: CAA (Homo sapiens, UniProt P05067)
# assayProcedure: In situ binding assay on CAA in fixed brain sections of Tg2576 mice
# Parameters: species or system mouse (Tg2576)
# conditionSummary: read-out: Binding affinity in situ, KD (nM) on CAA
Here, each record is paired with measured Kd data.
Please reply with the bare figure in nM and do not write the unit itself.

Report Kd for O=c1ccc2nc3ccc(OCCF)cc3oc-2c1 tested on CAA (Homo sapiens, UniProt P05067).
235

Report Kd for CCOc1ccc2nc3ccc(=O)cc-3oc2c1 tested on CAA (Homo sapiens, UniProt P05067).
247

Report Kd for C#COc1ccc2nc3ccc(=O)cc-3oc2c1 tested on CAA (Homo sapiens, UniProt P05067).
173

====

Here, each record is paired with measured Kd data.
# systemUnderTest: neuritic plaques (Homo sapiens, UniProt P05067)
# assayProcedure: In situ binding assay on neuritic plaques in fixed brain sections of Tg2576 mice
# Parameters: species or system mouse (Tg2576)
# conditionSummary: in situ, Tg2576 brain sections; read-out: Binding affinity in situ, KD (nM) on Plaques

chemSmiles | Kd
C#COc1ccc2nc3ccc(=O)cc-3oc2c1 | > 4000 nM

Switching to the query record.
Entry under review: O=c1ccc2nc3ccc(OCCF)cc3oc-2c1 . Reported Kd?
> 4000 nM

Data provenance: patent US8735575B2
